The origin of these recorded values is patent US11827664B2.

# protocol: Stability in acidic medium, monitored by HPLC
# Assay type: physicochemical
# protocol.conditions: 0.1 N aq. HCl/MeOH (2/1 v/v), room temperature, 8 h
# Method: A sample of a test compound (1.2 mg) was dissolved in 0.1 N aq. HCl/MeOH (2/1 v/v, 4 mL) at room temperature. The degradation of the test compound was monitored by HPLC. The percentage of the test compound remaining was calculated using the peak area % in HPLC.
For each record, write down the corresponding percentage of test compound remaining (HPLC peak area %).
The figure you give is taken to be in %; do not add the unit.

GET /values?readout=percentage of test compound remaining (HPLC peak area %)&item= CC(=O)NCCc1ccc(O[C@@H]2OC(C)(C)[C@H](OCc3ccccc3)[C@@H](O)[C@H]2O)cc1-c1cccc(F)c1
85.6

GET /values?readout=percentage of test compound remaining (HPLC peak area %)&item= CC(=O)NCCc1ccc(O[C@@H]2OC(C)(C)[C@H](OC(F)F)[C@@H](O)[C@H]2O)cc1-c1cccc(F)c1
99.0

GET /values?readout=percentage of test compound remaining (HPLC peak area %)&item= CC(=O)NCCc1ccc(O[C@@H]2O[C@@H](CO)[C@H](O)[C@@H](O)[C@H]2O)cc1-c1cccc(F)c1
97.6

GET /values?readout=percentage of test compound remaining (HPLC peak area %)&item= CO[C@@H]1[C@@H](O)[C@@H](O)[C@H](Oc2ccc(CCNC(C)=O)c(-c3cccc(F)c3)c2)O[C@H]1C
99.5

GET /values?readout=percentage of test compound remaining (HPLC peak area %)&item= CO[C@@H]1[C@@H](O)[C@@H](O)[C@H](Oc2ccc(C(F)(F)CNC(C)=O)c(-c3cccc(F)c3)c2)OC1(C)C
95.5

GET /values?readout=percentage of test compound remaining (HPLC peak area %)&item= CO[C@@H]1[C@@H](O)[C@@H](O)[C@H](Oc2ccc(CCNC(C)=O)c(-c3cccc(F)c3)c2)OC1(C)C [T0, reference compound]
93.4

GET /values?readout=percentage of test compound remaining (HPLC peak area %)&item= CC(=O)NCCc1ccc(O[C@H]2O[C@H](C)[C@@H](O)[C@H](O)[C@@H]2O)cc1-c1cccc(F)c1
100.2

GET /values?readout=percentage of test compound remaining (HPLC peak area %)&item= CC(=O)NCCc1ccc(O[C@@H]2OC(C)(C)[C@H](O)[C@@H](O)[C@H]2O)cc1-c1cccc(F)c1
96.1

GET /values?readout=percentage of test compound remaining (HPLC peak area %)&item= CC(=O)NCCc1ccc(O[C@@H]2O[C@@H](C)[C@H](O)[C@@H](O)[C@H]2O)cc1-c1cccc(F)c1
100.1

GET /values?readout=percentage of test compound remaining (HPLC peak area %)&item= CC(=O)NCCc1ccc(O[C@@H]2O[C@@H](C)[C@@H](O)[C@@H](O)[C@@H]2O)cc1-c1cccc(F)c1
99.0

GET /values?readout=percentage of test compound remaining (HPLC peak area %)&item= CO[C@@H]1[C@@H](O)[C@@H](O)[C@@H](Oc2ccc(CCNC(C)=O)c(-c3cccc(F)c3)c2)OC1(C)C
94.8

GET /values?readout=percentage of test compound remaining (HPLC peak area %)&item= CNC(=O)CCc1ccc(O[C@@H]2O[C@@H](C)[C@H](OC)[C@@H](O)[C@H]2O)cc1-c1cccc(F)c1
100.3

GET /values?readout=percentage of test compound remaining (HPLC peak area %)&item= CO[C@@H]1[C@@H](O)[C@@H](O)[C@H](Oc2ccc(C(F)(F)CNC(C)=O)c(-c3cccc(F)c3)c2)O[C@H]1C
99.7

GET /values?readout=percentage of test compound remaining (HPLC peak area %)&item= CNC(=O)CCc1ccc(O[C@@H]2OC(C)(C)[C@H](OC)[C@@H](O)[C@H]2O)cc1-c1cccc(F)c1
93.4
